Assay: Aqueous solubility of compound at pH 2.0
Assay type: physicochemical
Conditions: aqueous solution
READOUT: solubility (mg/mL)
Numeric answer only, unit mg/mL assumed.

Prompt line: Quick one: solubility for `COc1cccc(S(=O)(=O)NC[C@@H]2CCCN2)c1.Cl` ?
Response line: 96.2

---

Assay: AUC (0 to infinity) in Sprague-Dawley rat at 10 mg/kg, po measured after 8 hrs by LC-MS/MS analysis
Assay type: ADME, organism-based
Settings: in vivo
READOUT: AUC(0-inf) (ng·h/mL)
Numeric answer only, unit ng·h/mL assumed.

Prompt line: Quick one: AUC(0-inf) for `COc1cccc(S(=O)(=O)NC[C@@H]2CCCN2)c1.Cl` ?
Response line: 240

---

Test: Aqueous solubility of compound at pH 7.0
Assay type: physicochemical
Settings: aqueous solution
READOUT: solubility (mg/mL)
Numeric answer only, unit mg/mL assumed.

Prompt line: Quick one: solubility for `COc1cccc(S(=O)(=O)NC[C@@H]2CCCN2)c1.Cl` ?
Response line: 65.7

---

Experiment: Metabolic stability in human liver microsomes assessed as half-life preincubated for 60 mins followed by NADPH addition and measured after 60 mins by LC-MS/MS analysis
Assay type: ADME, Microsome
Details: time 120 min
READOUT: half-life (h)
Numeric answer only, unit h assumed.

Prompt line: Quick one: half-life for `COc1cccc(S(=O)(=O)NC[C@@H]2CCCN2)c1.Cl` ?
Response line: 2.1

---

Assay: Oral bioavailability in Sprague-Dawley rat at 10 mg/kg measured after 8 hrs by LC-MS/MS analysis
Format: ADME, organism-based
Details: in vivo
READOUT: bioavailability (%)
Numeric answer only, unit % assumed.

Prompt line: Quick one: bioavailability for `COc1cccc(S(=O)(=O)NC[C@@H]2CCCN2)c1.Cl` ?
Response line: 13.4

---

Experiment: Aqueous solubility of compound at pH 7.4
Assay type: physicochemical
Conditions: aqueous solution
READOUT: solubility (mg/mL)
Numeric answer only, unit mg/mL assumed.

Prompt line: Quick one: solubility for `COc1cccc(S(=O)(=O)NC[C@@H]2CCCN2)c1.Cl` ?
Response line: 43.3

---

Molecular target: Trace amine-associated receptor 1 (Homo sapiens)
Sequence (Q96RJ0 whole entry): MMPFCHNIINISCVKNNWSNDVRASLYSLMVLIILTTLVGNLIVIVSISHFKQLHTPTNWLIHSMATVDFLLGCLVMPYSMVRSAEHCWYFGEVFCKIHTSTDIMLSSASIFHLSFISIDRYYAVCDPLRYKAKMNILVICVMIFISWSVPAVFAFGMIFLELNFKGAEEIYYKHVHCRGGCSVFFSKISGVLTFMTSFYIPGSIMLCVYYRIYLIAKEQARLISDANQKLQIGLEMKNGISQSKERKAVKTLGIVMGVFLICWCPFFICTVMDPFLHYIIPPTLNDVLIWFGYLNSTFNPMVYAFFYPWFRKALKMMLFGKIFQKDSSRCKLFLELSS
Test: Agonist activity at TAAR1 (unknown origin) transfected in HEK293 cells co-transfected with Galphaq-Nluc, Gbeta1/3 and Ggamma1/2/9-mVenus assessed as Galphaq-Gbeta/gamma dissociation by BRET assay
Type: functional, cell-based
READOUT: EC50

Prompt line: Quick one: EC50 for `O=S(=O)(NC[C@@H]1CCCN1)c1ccc(Cl)cc1` ?
Response line: > 10 µM

Prompt line: Quick one: EC50 for `O=S(=O)(NC[C@@H]1CCCN1)c1ccc(Br)cc1` ?
Response line: > 10 µM

Prompt line: Quick one: EC50 for `O=S(=O)(NC[C@@H]1CCCN1)c1ccc2ccccc2c1` ?
Response line: 0.055 µM

Prompt line: Quick one: EC50 for `O=S(=O)(NC[C@@H]1CCCN1)c1ccc(Cl)s1` ?
Response line: > 10 µM

Prompt line: Quick one: EC50 for `COc1ccccc1S(=O)(=O)NC[C@@H]1CCCN1` ?
Response line: 0.0078 µM

Prompt line: Quick one: EC50 for `O=S(=O)(NC[C@@H]1CCCN1)c1ccccc1` ?
Response line: > 10 µM

Prompt line: Quick one: EC50 for `O=S(=O)(NC[C@@H]1CCCN1)c1ccc2[nH]cnc2c1` ?
Response line: 0.131 µM

Prompt line: Quick one: EC50 for `O=S(=O)(NC[C@@H]1CCCN1)c1cccc(C(F)(F)F)c1` ?
Response line: > 10 µM

Prompt line: Quick one: EC50 for `O=S(=O)(NC[C@@H]1CCCN1)c1ccccc1C(F)(F)F` ?
Response line: > 10 µM

Prompt line: Quick one: EC50 for `O=S(=O)(NC[C@@H]1CCCN1)c1ccc(C(F)(F)F)cc1` ?
Response line: > 10 µM

Prompt line: Quick one: EC50 for `O=[N+]([O-])c1ccc(S(=O)(=O)NC[C@@H]2CCCN2)cc1` ?
Response line: > 10 µM

Prompt line: Quick one: EC50 for `O=S(=O)(NC[C@@H]1CCCN1)c1ccc2c(c1)CCC2` ?
Response line: > 10 µM

Prompt line: Quick one: EC50 for `O=[N+]([O-])c1cccc(S(=O)(=O)NC[C@@H]2CCCN2)c1` ?
Response line: > 10 µM

Prompt line: Quick one: EC50 for `O=S(=O)(NC[C@@H]1CCCN1)c1ccccc1Cl` ?
Response line: 0.0632 µM

Prompt line: Quick one: EC50 for `O=S(=O)(NC[C@@H]1CCCN1)c1cc(F)cc(F)c1` ?
Response line: > 10 µM

Prompt line: Quick one: EC50 for `CC(=O)Nc1ccc(S(=O)(=O)NC[C@@H]2CCCN2)cc1` ?
Response line: 0.0416 µM

Prompt line: Quick one: EC50 for `COc1ccc(S(=O)(=O)NC[C@@H]2CCCN2)cc1` ?
Response line: 0.0357 µM

Prompt line: Quick one: EC50 for `O=c1[nH]c2ccc(S(=O)(=O)NC[C@@H]3CCCN3)cc2[nH]c1=O` ?
Response line: 0.0055 µM

Prompt line: Quick one: EC50 for `O=S(=O)(NC[C@@H]1CCCN1)c1cccc(Br)c1` ?
Response line: > 10 µM

Prompt line: Quick one: EC50 for `O=c1[nH]c2ccc(S(=O)(=O)NC[C@@H]3CCCN3)cc2[nH]1` ?
Response line: > 10 µM

Prompt line: Quick one: EC50 for `Cc1cccc(S(=O)(=O)NC[C@@H]2CCCN2)c1` ?
Response line: > 10 µM

Every entry's value here was drawn from ChEMBL document CHEMBL6177995.
